- Tested on: RXF 393
- experimental.details: NCI tumour cell line growth inhibition, 48 h
Calls of active or inactive are those of the source. Cut-off read from the data, not from the text of the source: active = GI50 up to about 1.1 µM and inactive = higher.
The entries below are paired with their reported GI50.

Solved cases (4 shown):
molecule=O=C(c1ccc(Cl)cc1)N(C(=S)OCCOc1ccccc1)c1ccccc1 reported="18.6 µM (inactive)"
molecule=COC(=O)C1(C(=O)OC)CC2=C(S(=O)(=O)c3ccccc3)C[C@H](S(=O)(=O)c3ccccc3)[C@H]2C1 reported="13.8 µM (inactive)"
molecule=COc1cc2c(cc1C)[n+]([O-])c(C)c(C(=O)C/C(=N/NC(=O)C[N+](C)(C)C)C(=O)Nc1cccc(Cl)c1C)[n+]2[O-] reported="> 100 µM (inactive)"
molecule=C(CCCCc1nnc(N2CCCCC2)o1)CCCc1nnc(N2CCCCC2)o1 reported="> 100 µM (inactive)"

Tell me the measured GI50 of COc1cc(C2c3cc4c(cc3C3OC[C@@H]2C3CO)OCO4)cc(OC)c1OC (some centres undefined) , please.
37.6 µM (inactive)

Tell me the measured GI50 of COc1ccc(/C=C2\CSC/C(=C\c3ccc(OC)c(OC)c3OC)C2=O)c(OC)c1OC , please.
15.6 µM (inactive)

Tell me the measured GI50 of C=C/C=C(\NC(=O)C(Cl)(Cl)Cl)[Si](C)(C)C , please.
> 100 µM (inactive)

Tell me the measured GI50 of COc1ccc(O)c(/C=N\Nc2ccccc2)c1 , please.
84.3 µM (inactive)

Tell me the measured GI50 of COc1ccc(C(=O)C(c2ccc(OCc3ccccc3)cc2)c2ccc(OCc3ccccc3)cc2)cc1 , please.
> 100 µM (inactive)

###

- Test system: M19-MEL
- experimental.details: NCI tumour cell line growth inhibition, 48 h
Active and inactive are the calls of the source. Cut-off read from the data, not from the text of the source: active = GI50 up to about 1.1 µM and inactive = higher.
reported.metric: GI50

Tell me the measured GI50 of Nc1ccccc1C(=O)/C=C/c1c(O)ccc2ccccc12 , please.
19.4 µM (inactive)

Tell me the measured GI50 of O=c1c2cc(Cl)ccc2sc2cccc(Cl)c12 , please.
> 100 µM (inactive)

Tell me the measured GI50 of N#Cc1ccccc1NC(=O)/C(=N\Nc1ccc([N+](=O)[O-])cc1)C1C(=O)NC(=O)NC1=O , please.
> 100 µM (inactive)

Tell me the measured GI50 of COc1c(Cl)c(Cl)c(OC)c2c1C(=O)C=CC2=O , please.
18 µM (inactive)

Tell me the measured GI50 of Cc1ccc(C(=O)O/N=C2/CCCC/C2=C\c2ccccc2)cc1 , please.
67.9 µM (inactive)

Tell me the measured GI50 of Cc1ccc([S+](c2ccccc2)c2cc(C)ccc2C)cc1.O=C(OC(C(=O)[O-])C(OC(=O)c1ccccc1)C(=O)O)c1ccccc1 (centres undefined) , please.
5.41 µM (inactive)

Tell me the measured GI50 of Cc1cc2c(cc1C)[n+]([O-])c(C(=O)CC(=O)C(=O)Nc1ccccc1C(C)C)c(C)[n+]2[O-] , please.
> 100 µM (inactive)

Tell me the measured GI50 of COc1ccc(C(=O)C(c2ccc(OCc3ccccc3)cc2)c2ccc(OCc3ccccc3)cc2)cc1 , please.
> 100 µM (inactive)

Tell me the measured GI50 of CCCCCCCCC/C=C1\CCC(CN2CCOCC2)C1=O (centres undefined) , please.
3.28 µM (inactive)

Tell me the measured GI50 of CN(CCN1C(=O)c2cc([N+](=O)[O-])cc3cc([N+](=O)[O-])cc(c23)C1=O)CCN1C(=O)c2cc([N+](=O)[O-])cc3cc([N+](=O)[O-])cc(c23)C1=O , please.
0.369 µM (active)

Tell me the measured GI50 of Cc1ccc(/N=N/C(C(=O)c2ccccc2)C(=O)c2ccccc2)cc1 , please.
16 µM (inactive)

Tell me the measured GI50 of COC(=O)C1C=CCON2CCc3c(n(S(=O)(=O)c4ccccc4)c4ccccc34)C12 (centres undefined) , please.
40.6 µM (inactive)

Tell me the measured GI50 of CC1(C(=O)Nc2ccc3cc4ccccc4cc3c2)CC2(C)CC(C)(C1)C(O)NC2=O (centres undefined) , please.
> 100 µM (inactive)

Tell me the measured GI50 of CCN1C2=NC(=O)N(C)C(=O)C2(Cl)C(C(SC)S(=O)(=O)c2ccc(C)cc2)c2ccccc21 (centres undefined) , please.
24.7 µM (inactive)

Tell me the measured GI50 of O=[N+]([O-])c1ccc(Cl)c(C2CC(c3cccc4ccccc34)=Nc3ccccc3S2)c1 (centres undefined) , please.
20.2 µM (inactive)

Tell me the measured GI50 of O=C(C(=O)n1ncc(Cl)c(Cl)c1=O)n1ncc(Cl)c(Cl)c1=O , please.
20.4 µM (inactive)

Tell me the measured GI50 of C=C(CN(C)C)C(=O)c1ccccc1C , please.
23.4 µM (inactive)

Tell me the measured GI50 of Cc1ccc(C2CC(c3cccc([N+](=O)[O-])c3)=Nc3ccccc3S2)cc1 (centres undefined) , please.
40.4 µM (inactive)

Tell me the measured GI50 of O=C(OCCOC(=O)c1ccc2c(c1)C1(SCCS1)c1ccccc1-2)c1ccc2c(c1)C1(SCCS1)c1ccccc1-2 , please.
> 100 µM (inactive)
